Where do the numbers come from? From ChEMBL document CHEMBL4145615.

Readings of ΔTm for the listed compounds
Test system: Lipid bilayer
Readout: ΔTm (°C)

{"Chem Smiles": "CCCCCCCCn1cc(CN2CCC3(CC2)OCCCO3)c2ccc(OC)cc21", "Target Or System": "Lipid bilayer", "Readout": "ΔTm", "Measurement Units": "°C", "Reported Result": 4}
{"Chem Smiles": "CCCCCCCCn1cc(CN2CCC3(CC2)OCCS3)c2ccc(OC)cc21", "Target Or System": "Lipid bilayer", "Readout": "ΔTm", "Measurement Units": "°C", "Reported Result": 4}
{"Chem Smiles": "CCCCCCCCn1cc(CN2CCC3(CC2)SCCS3)c2ccc(OC)cc21", "Target Or System": "Lipid bilayer", "Readout": "ΔTm", "Measurement Units": "°C", "Reported Result": 4}
{"Chem Smiles": "CCCCCCCCn1ccc2cc(OCCCN3CCCCCC3)ccc21", "Target Or System": "Lipid bilayer", "Readout": "ΔTm", "Measurement Units": "°C", "Reported Result": 1}
{"Chem Smiles": "CCCCCCCCn1cc(CN2CCC3(CC2)OCCCS3)c2ccc(OC)cc21", "Target Or System": "Lipid bilayer", "Readout": "ΔTm", "Measurement Units": "°C", "Reported Result": 4}

---

Assay: Drug uptake in lung of Mycobacterium tuberculosis H37Rv infected BALB/c mouse at 100 mg/kg administered 6 days per week for 4 weeks via oral gavage
Format: ADME, organism-based
Conditions: in vivo, read-out: Drug uptake
Quick reference: concentration of the listed items.
Readout: concentration

{"Chem Smiles": "CCCCCCCCn1cc(CN2CCC3(CC2)OCCCO3)c2ccc(OC)cc21", "Reported Result": "3000 nM"}
{"Chem Smiles": "CCCCCCCCn1cc(CN2CCC3(CC2)OCCO3)c2ccc(OC)cc21", "Reported Result": "1000 nM"}

---

Examples of compounds with documented pIC50 follow.
Tested on: Vero C1008
Assay: Cytotoxicity against African green monkey Vero E6 cells assessed as cell growth inhibition after 48 hrs by celltitre 96 aqueous one-based assay
Conditions: Chlorocebus sabaeus, Vero C1008, 48 h
pIC50: −log10 of the molar value.

{"Compound": "CCCCCCCCn1cc(CN2CCC3(CC2)OCCO3)c2ccc(OCCC)cc21", "pIC50": 4.54}
{"Compound": "COc1ccc2c(CN3CCC4(CC3)OCCO4)cn(CCCc3ccccc3)c2c1", "pIC50": 4.46}
{"Compound": "CCCCCCCCn1cc(CN2CCC3(CC2)OCCO3)c2ccc(OC(C)C)cc21", "pIC50": 4.39}
{"Compound": "CCCCCCCCn1cc(CN2CCC3(C=Cc4ccccc43)CC2)c2ccc(OC)cc21", "pIC50": 4.36}
{"Compound": "CCCCCCCCn1cc(CN2CCC3(CC2)OCCCO3)c2cccc([N+](=O)[O-])c21", "pIC50": 4.31}
{"Compound": "CCCCCCCCn1cc(CN2CCC3(CC2)OCCO3)c2ccc(OCc3ccccc3)cc21", "pIC50": 4.44}
{"Compound": "CCCCCCCCn1cc(CN2CCC3(CC2)OC[C@H](C)O3)c2ccc(OC)cc21", "pIC50": 4.47}
{"Compound": "CCCCCCCCn1cc(CN2CCC3(CCN(Cc4ccccc4)CC3)CC2)c2ccc(OC)cc21", "pIC50": 4.85}
{"Compound": "CCCCCCCCn1cc(CN2CCC3(CC2)OCCO3)c2ccc(C#N)cc21", "pIC50": 4.23}
{"Compound": "CCCCCCCCn1cc(CNCC2CCC3(CCCC3)O2)c2ccc(OC)cc21 (centres undefined)", "pIC50": 4.68}
{"Compound": "CCCCCCCCn1cc(CNCC2CC3CC3C2)c2ccc(OC)cc21 (centres undefined)", "pIC50": 5.00}
{"Compound": "CCCCCCCCn1cc(CNCC2CCC3CC3C2)c2ccc(OC)cc21 (centres undefined)", "pIC50": 4.70}
{"Compound": "CCCCCCCCn1cc(CN2CCCC3(CC2)OCCCS3)c2ccc(OC)cc21 (centres undefined)", "pIC50": 4.47}
{"Compound": "CCCCCCCCn1cc(CN2CCCCC2)c2ccc(C#N)cc21", "pIC50": 4.66}
